Target: LCK (Homo sapiens, UniProt P06239)
Sequence (P06239 whole entry): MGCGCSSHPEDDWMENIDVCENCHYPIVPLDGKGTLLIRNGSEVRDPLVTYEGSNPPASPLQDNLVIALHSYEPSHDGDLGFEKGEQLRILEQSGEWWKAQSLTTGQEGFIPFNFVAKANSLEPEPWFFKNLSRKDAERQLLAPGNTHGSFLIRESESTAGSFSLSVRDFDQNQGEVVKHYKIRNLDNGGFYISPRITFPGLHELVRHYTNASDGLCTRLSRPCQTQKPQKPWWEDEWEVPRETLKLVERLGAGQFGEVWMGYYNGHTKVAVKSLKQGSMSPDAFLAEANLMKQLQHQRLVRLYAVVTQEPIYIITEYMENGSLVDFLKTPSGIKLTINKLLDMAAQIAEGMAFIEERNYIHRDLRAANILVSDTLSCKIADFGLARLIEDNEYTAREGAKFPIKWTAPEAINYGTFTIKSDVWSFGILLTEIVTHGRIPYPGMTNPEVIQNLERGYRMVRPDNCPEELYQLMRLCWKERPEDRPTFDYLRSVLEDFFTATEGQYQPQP
Experiment: NanoBRET target engagement, LCK-NanoLuc, HEK293 cells (live, ATP depleted, permeabilized)
Assay type: binding
Conditions: LCK Replicate 1; permeabilized HEK293; probe 5; read-out: ATP Kd
measured quantity: pKd
Please note pKd is a logarithmic value: minus log10 of concentration in mol/L. Answer with that number alone.

Quick check: pKd of Nc1ncnc2c1ncn2[C@@H]1O[C@H](COP(=O)(O)OP(=O)(O)OP(=O)(O)O)[C@@H](O)[C@H]1O [ATP] ? 4.98

====

Target: full-length kinase/Nluc fusion proteins (Homo sapiens)
Sequence (O00329 1-1044): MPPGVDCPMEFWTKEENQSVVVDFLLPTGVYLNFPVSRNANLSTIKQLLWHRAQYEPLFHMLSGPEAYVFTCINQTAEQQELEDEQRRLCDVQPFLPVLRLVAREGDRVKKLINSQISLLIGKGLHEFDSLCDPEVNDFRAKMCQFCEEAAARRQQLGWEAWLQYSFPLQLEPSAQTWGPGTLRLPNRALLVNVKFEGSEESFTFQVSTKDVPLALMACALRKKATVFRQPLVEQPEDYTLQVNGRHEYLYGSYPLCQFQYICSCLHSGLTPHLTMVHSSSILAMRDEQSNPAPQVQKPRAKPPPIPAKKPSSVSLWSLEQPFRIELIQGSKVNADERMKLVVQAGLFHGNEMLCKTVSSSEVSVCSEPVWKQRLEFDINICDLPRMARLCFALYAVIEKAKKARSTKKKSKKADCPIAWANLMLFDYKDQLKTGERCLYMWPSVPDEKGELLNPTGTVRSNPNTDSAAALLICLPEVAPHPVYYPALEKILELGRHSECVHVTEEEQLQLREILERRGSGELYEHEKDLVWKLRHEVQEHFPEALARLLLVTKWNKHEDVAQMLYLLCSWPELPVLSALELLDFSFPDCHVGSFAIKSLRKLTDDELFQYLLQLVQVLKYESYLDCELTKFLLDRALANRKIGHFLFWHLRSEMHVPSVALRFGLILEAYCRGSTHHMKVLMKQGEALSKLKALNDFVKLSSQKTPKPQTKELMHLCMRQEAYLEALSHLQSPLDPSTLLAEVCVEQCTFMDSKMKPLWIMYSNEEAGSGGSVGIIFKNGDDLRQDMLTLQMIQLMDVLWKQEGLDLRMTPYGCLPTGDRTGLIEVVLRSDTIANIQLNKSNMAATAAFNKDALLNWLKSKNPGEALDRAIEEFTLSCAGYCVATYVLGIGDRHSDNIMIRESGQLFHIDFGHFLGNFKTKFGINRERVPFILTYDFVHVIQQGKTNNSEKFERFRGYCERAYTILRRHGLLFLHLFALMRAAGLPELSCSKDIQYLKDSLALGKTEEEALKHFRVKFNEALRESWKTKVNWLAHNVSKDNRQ
Assay: Apparent affinity (EC50) of energy transfer probes by titration onto live HEK293 cells expressing kinase/Nluc fusions (Table S1)
Settings: PIK3CD, Nluc N; read-out: Probe EC50
measured quantity: EC50

Quick check: EC50 of O=C(CCc1ccc2n1[B-](F)(F)[N+]1=C(c3ccc[nH]3)C=CC1=C2)N1CCN(Cc2cc3nc(-c4cccc(O)c4)nc(N4CCOCC4)c3s2)CC1 [Energy Transfer Probe 3] ? > 1 µM
